Tested on: two-spotted spider mites
Experiment: Miticidal test on two-spotted spider mites (by dipping)
Format: in vivo, Tetranychus urticae
Set-up: scale not given here
Conditions: dipping of soybean seedlings, active ingredient 500 ppm, 25° C., 13 days
measurement_name: Miticidal value
Respond with the number and no other words.

compound: COC(=O)Nc1nc(C(F)(F)F)nn1-c1cc([S+]([O-])CC(F)(F)F)c(C)cc1F (centres unmarked) [Compound 80]
target_desc: two-spotted spider mites
measurement_name: Miticidal value
reading: 100
--
compound: Cc1cc(F)c(-n2nc(SC(F)F)nc2N)cc1[S+]([O-])CC(F)(F)F (centres unmarked) [Compound 28]
target_desc: two-spotted spider mites
measurement_name: Miticidal value
reading: 100

The compound listed as Nc1nc(C(F)(F)F)nn1-c1ccc(Cl)c([S+]([O-])CC(F)(F)F)c1 (centres unmarked) [Compound 127] shows Miticidal value equal to 100

The compound listed as CNc1nc(C(C)(C)C)nn1-c1cc(SCC(F)(F)F)c(C)cc1F [Compound 114] shows Miticidal value equal to 100

The compound listed as Cc1cc(F)c(-n2nc(C(F)(F)F)nc2NC(=O)C(F)(F)Cl)cc1[S+]([O-])CC(F)(F)F (racemic) [Compound 192] shows Miticidal value equal to 100

The compound listed as CCc1nc(N)n(-c2cc([S+]([O-])CC(F)(F)F)c(C)cc2F)n1 (centres unmarked) [Compound 117] shows Miticidal value equal to 100

The compound listed as CNc1nc(C(F)(F)F)nn1-c1cc([S+]([O-])CC(F)(F)F)c(C)cc1C (centres unmarked) [Compound 147] shows Miticidal value equal to 100

The compound listed as Cc1cc(F)c(-n2nc(C(F)(F)F)nc2N)cc1[S+]([O-])CC1CC1 (centres unmarked) [Compound 4] shows Miticidal value equal to 100
